# procedure summary: folding stability dG unfold from trypsin proteolysis; higher = more stable

{"seq": "SAGGSAGGSAGGKPNEVRVANIPIYRRLENGGWELIRPLPIVVPVDASVDFVLDAFKKYSAGGSAGGSAGGS [r10_470_TrMRF]", "folding stability dG unfold (kcal/mol)": 0.392}
{"seq": "SAGEEPPEVTIKVVEKDGKLVIEVEYNGKTLTITLEDGEKIEIKFPEGMSEEELLEEAKRLAKELAEKSAGG [r19_170_TrROS_Hall]", "folding stability dG unfold (kcal/mol)": 3.05}
{"seq": "MVLDAGISRKDFINNKPIKVETALKKLAEILGGPNFKPKVKPSKKDYLVAVIELPDGRKLLLKDDKDIKISS [r1_168_TrMRF]", "folding stability dG unfold (kcal/mol)": 0.514}
{"seq": "SAGGMVTITTEKMTEEEAEELKKKLPPNTVLLPNPANDTIVPILVPPDPAVLQAVKDALEKELAEAKSAGGS [r16_311_JUSTAS]", "folding stability dG unfold (kcal/mol)": 1.49}
{"seq": "MTVTVPPDGTVTITLTDPSGNTYTFTIPVTDPAELRARLEEAIRELFPEFEDIPVRVVAVDGPAVVVEVPLS [r1_389_JUSTAS]", "folding stability dG unfold (kcal/mol)": 3.02}
{"seq": "SAGGSAGGSAGGFTVTVVEPVDPNDPAFKKLMEERGLPPEEVVATKTLTADSEEEIAALLSAGGSAGGSAGG [r11_83_JUSTAS]", "folding stability dG unfold (kcal/mol)": 0.283}
{"seq": "SAGGSAGGSASMAPPEVLSLPVEILEKSPDGSVTVLVPETGEVLTFPSPKVNVTPDGTLNLSSAGGSAGGSA [r18_89_JUSTAS]", "folding stability dG unfold (kcal/mol)": 0.416}
{"seq": "SAGGSAGGPIVLKFPSPEDLEKAIEIATAHGYEIELNPESGTLVINATGPMLEEFKKIPGLEISSAGGSAGG [r6_724_TrMRF]", "folding stability dG unfold (kcal/mol)": 2.73}

----------
# procedure summary: folding stability dG unfold (combined trypsin and chymotrypsin); higher = more stable
# Lookup of reported folding stability dG unfold keyed by entry

{"seq": "SAGGKATVTITEVKVETETVTLKYDPETGELVEKTETVTRVEVKTITIEADKNPELAEELLKKLGIESAGGS [r16_467_TrROS_Hall]", "units label": "kcal/mol", "qual": "=", "folding stability dG unfold": 2.56}
{"seq": "SAGGSAGGSAKIIVNEDGYLIKITNKNGKEITIEMSEDELKELLKKLGIKKAEIVPLPKEKSAGGSAGGSAG [r3_141_TrROS_Hall]", "units label": "kcal/mol", "qual": "=", "folding stability dG unfold": 1.72}
{"seq": "SPIILPGASTVTINATVTVEPRDPATGTVLSSRDLPVPVTVTTNADGTVTITVDVPADVPADAAVTVDLTSA [r9_90_JUSTAS]", "units label": "kcal/mol", "qual": "=", "folding stability dG unfold": -0.338}
{"seq": "SKEILEAEVEEILKLLPESLKPDVPRELVFPGVKITVTKYEPVDKNKGGKKPTTVVTIELPEGPVTIPLPSA [r9_279_JUSTAS]", "units label": "kcal/mol", "qual": "=", "folding stability dG unfold": -0.531}
{"seq": "STSTTITYPTLTISVEESVLPDGTPRYTVTLHLPEKGVSIPVEVDSAAEAEEAVREAIRKLLPDETVEEESA [r9_749_JUSTAS]", "units label": "kcal/mol", "qual": "=", "folding stability dG unfold": 2.23}
{"seq": "SAGGSAMKTAEVVLDVPEEELEAARAAGEGLSAEVRARMEALAAEVRAAGYDEVVLRLRPSSVPLPSAGGSA [r15_304_JUSTAS]", "units label": "kcal/mol", "qual": "<", "folding stability dG unfold": -1}

Hey, just so you know, these numbers are from the supplement of paper PMC12764529.
